System: U2OS
Test: cell viability relative to DMSO; higher = less toxic
Conditions: 72 h; 100 nM
Measured Endpoint: cell viability (%)
Numbers only, in %.

For orientation, consider the following solved cases.
{"Compound String": "Cc1ncc[nH]1", "cell viability, %": 101}
{"Compound String": "N#Cc1ccc(N(Cc2ccc(Br)cc2)n2cnnc2)cc1", "cell viability, %": 103}
{"Compound String": "O[C@@H](COc1cccc2ncccc12)CN1CCN([C@@H]2c3ccccc3[C@@H]3[C@H](c4ccccc42)C3(F)F)CC1", "cell viability, %": 99.4}

Hi! Can you tell me cell viability for each of these molecules?
1. COc1ncc(-c2ccc3c(Nc4cc(Oc5cc(F)cc(F)c5)cc(C(=O)O)c4)c(S(=O)(=O)NC4CC4)cnc3c2)c(OC)n1
2. CC(C)C[C@@H](N)C(=O)N[C@H]1C(=O)N[C@@H](CC(N)=O)C(=O)N[C@H]2C(=O)N[C@H]3C(=O)N[C@H](C(=O)N[C@H](C(=O)O)c4cc(O)cc(O)c4-c4cc3ccc4O)[C@H](O)c3ccc(c(Cl)c3)Oc3cc2cc(c3O[C@@H]2O[C@H](CO)[C@@H](O)[C@H](O)[C@H]2O[C@H]2C[C@](C)(N)[C@H](O)[C@H](C)O2)Oc2ccc(cc2Cl)[C@H]1O
3. CCOC(=O)[C@@H](C)Oc1cccc2c(=O)n(CC(=O)Nc3ccc4c(c3)OCCO4)ccc12

Resp:
1. 98.8
2. 96.6
3. 95.8

* * *

Hi there, I'd appreciate the recorded cell viability for every entry that follows.
System: Caco-2
Test: cell viability relative to DMSO; higher = less toxic
Conditions: 72 h; 10 nM
Remember to follow the number with its unit.

For orientation, consider the following solved cases.
{"Compound": "C[C@H](NC(=O)C(C)(C)Oc1ccc(C(F)(F)F)cn1)[C@@H](Cc1ccc(Cl)cc1)c1cccc(C#N)c1 [taranabant]", "cell viability": "108%"}
{"Compound": "O=C(C1CCCCC1)N1CC(=O)N2CCc3ccccc3C2C1 (stereo not given) [praziquantel]", "cell viability": "112%"}
{"Compound": "Cc1nc2n(c(=O)c1CCN1CCC(c3noc4cc(F)ccc34)CC1)CCCC2O (stereo not given) [paliperidone]", "cell viability": "106%"}
{"Compound": "O=C1CCC(N2C(=O)c3ccccc3C2=O)C(=O)N1 (stereo not given) [thalidomide]", "cell viability": "91.9%"}

Continue with the next compound.
Req: Field: cell viability (Caco-2). Entry: COc1ccc(C(=O)c2c(C)n(CCN3CCOCC3)c3cc(I)ccc23)cc1 [AM-630]
Resp: 113%

* * *

Hi there, I'd appreciate the recorded cell viability for every entry that follows.
Tested on: U2OS
Experiment: cell viability relative to DMSO; higher = less toxic
Details: 72 h; 10 nM
Numbers only, in %.

{"Molecule": "CCc1cc(C(N)=S)ccn1 [ethionamide]", "Output Unit": "%", "Observed": 94}

Hi! Can you tell me cell viability for each of these molecules?
1. C[C@@H](O)[C@H]1C(=O)N2C(C(=O)O)=C([C@H]3CCCO3)S[C@H]12
2. O=C(NS(=O)(=O)c1ccc(Br)s1)c1ccc(Cl)cc1Cl
3. CC(C)(C)NCC(O)c1ccc(O)c(CO)c1 (stereo not given)
4. CC1(C)CCC2=C(O1)c1ccccc1C(=O)C2=O

Resp:
1. 101
2. 98.1
3. 98.5
4. 100

* * *

System: Calu-3
Experiment: cell viability relative to DMSO; higher = less toxic
Conditions: 72 h; 1000 nM
Hi there, I'd appreciate the recorded cell viability for every entry that follows.
Numbers only, in %.

{"Compound": "C[C@@H]1CCN(C(=O)CC#N)C[C@@H]1N(C)c1ncnc2[nH]ccc12", "Output Unit": "%", "Observed": 112}
{"Compound": "O=C(NC(=O)c1c(F)cccc1F)Nc1cc(Cl)c(OC(F)(F)C(F)C(F)(F)F)cc1Cl (configuration not stated)", "Output Unit": "%", "Observed": 83.2}
{"Compound": "c1ccc2sc(N3CCN(Cc4ccc5c(c4)OCO5)CC3)nc2c1 [2-[1-(4-piperonyl)piperazinyl]benzothiazole]", "Output Unit": "%", "Observed": 98.6}

Hi! Can you tell me cell viability for each of these compounds?
1. O=[N+]([O-])c1cc(Cl)ccc1S(=O)(=O)c1ccccc1
2. COc1cc2c(cc1OC)CN(CCc1ccc(NC(=O)c3cc(OC)c(OC)cc3NC(=O)c3cnc4ccccc4c3)cc1)CC2
3. CCN(CC)CCOC(=O)C1(C2CCCCC2)CCCCC1

Resp:
1. 103
2. 101
3. 91.8

Hi! Can you tell me cell viability for each of these compounds?
1. COc1cc([C@@H]2c3cc4c(cc3[C@@H](O[C@@H]3O[C@@H]5CO[C@@H](C)O[C@H]5[C@H](O)[C@H]3O)[C@H]3COC(=O)[C@H]23)OCO4)cc(OC)c1OP(=O)(O)O [etoposide-phosphate]
2. N#CCC1(n2cc(-c3ncnc4[nH]ccc34)cn2)CN(C2CCN(C(=O)c3ccnc(C(F)(F)F)c3F)CC2)C1
3. CN1CC(=O)N=C1NC(=O)Nc1cccc(Cl)c1
4. COc1ccc(C(C)(C)C)cc1CN[C@H]1C2CCN(CC2)[C@H]1C(c1ccccc1)c1ccccc1
5. CC(C)(C)c1cc(C=C(C#N)C#N)cc(C(C)(C)C)c1O
6. CCN1CCN(Cc2ccc(-c3cc4c(N[C@H](C)c5ccccc5)ncnc4[nH]3)cc2)CC1
7. CC(N)Cc1c[nH]c2ccc(OCc3cccs3)cc12 (configuration not stated)
8. CC1(C)CCC2=C(O1)c1ccccc1C(=O)C2=O

Resp:
85.7
93.6
105
101
92.8
38.1
104
106

Hi! Can you tell me cell viability for each of these compounds?
1. NC(=O)c1ccccc1O [salicylamide]
2. C[C@H](N)[C@H](O)c1cccc(O)c1

Resp:
100
99.9

Req: Recorded cell viability for C=CC(C)(C)c1cc(/C=C/C(=O)c2ccc(O)cc2)c(OC)cc1O , please?
Resp: 98.1

* * *

Test system: A549-ACE2 infected with SARS-CoV-2
Test: SARS-CoV-2 infection rate relative to DMSO; higher = more infection
Conditions: 3 µM; 24 h
Hi there, I'd appreciate the recorded SARS-CoV-2 infection rate for every entry that follows.

For orientation, consider the following solved cases.
{"Compound String": "O=C(Nc1ccc(-c2ccncc2)cc1)N[C@H](CO)c1ccccc1", "SARS-CoV-2 infection rate": "110%"}
{"Compound String": "Clc1ccc(N/N=C(\\c2ccccc2)c2ccccn2)nc1", "SARS-CoV-2 infection rate": "82%"}
{"Compound String": "CCN(CC)CCOC(=O)C1(C2CCCCC2)CCCCC1", "SARS-CoV-2 infection rate": "66%"}
{"Compound String": "CN(C)c1ccccc1CN1CCCN(Cc2ccccc2N(C)C)C1c1ccncc1", "SARS-CoV-2 infection rate": "64%"}
{"Compound String": "CCN(CC)Cc1cc(Nc2ccnc3cc(Cl)ccc23)ccc1O", "SARS-CoV-2 infection rate": "24%"}

Req: Recorded SARS-CoV-2 infection rate for CCN(CC)CCOc1ccc2c(c1)C(=O)c1cc(OCCN(CC)CC)ccc1-2 , please?
Resp: 46%

* * *

Tested on: Caco-2
Assay: cell viability relative to DMSO; higher = less toxic
Details: 72 h; 100 nM
Hi there, I'd appreciate the recorded cell viability for every entry that follows.

For orientation, consider the following solved cases.
{"Compound": "CC(=O)Nc1ccc(S(=O)(=O)Nc2ccc([N+](=O)[O-])cc2)cc1", "Observed": "97.9%"}
{"Compound": "Oc1ccc(-c2nc(-c3ccc(F)cc3)c(-c3ccncc3)[nH]2)cc1", "Observed": "100%"}
{"Compound": "Clc1ccccc1CN1CCc2sccc2C1", "Observed": "93.5%"}
{"Compound": "CC(=O)O[C@]1(C(C)=O)CC[C@H]2[C@@H]3C[C@H](C)C4=CC(=O)C=C[C@]4(C)[C@@]3(F)[C@@H](O)C[C@@]21C [fluorometholone-acetate]", "Observed": "99.1%"}
{"Compound": "C[C@@H]1CCN(C(=O)CC#N)C[C@@H]1N(C)c1ncnc2[nH]ccc12", "Observed": "94.4%"}
{"Compound": "N[C@@H](C(=O)O)c1ccc(C(=O)O)c(O)c1 (racemic) [4-carboxy-3-hydroxyphenylglycine-(RS)]", "Observed": "92.6%"}
{"Compound": "O=C(O)COCCN1CCN(C(c2ccccc2)c2ccc(Cl)cc2)CC1 (configuration not stated)", "Observed": "97.8%"}
{"Compound": "O=C(O)c1c2ccccc2cc2ccccc12", "Observed": "95%"}
{"Compound": "c1ccc2sc(N3CCN(Cc4ccc5c(c4)OCO5)CC3)nc2c1 [2-[1-(4-piperonyl)piperazinyl]benzothiazole]", "Observed": "98.9%"}
{"Compound": "Cc1ncc(NC(=O)c2ccc(CN3CCN(C)CC3)c(C(F)(F)F)c2)cc1Nc1nccc(-c2cccnc2)n1", "Observed": "101%"}

Hi! Can you tell me cell viability for each of these compounds?
1. CCN(c1ccccc1)c1cc(=NC)n(C)c(C)n1
2. OCCN1CCN(CCCN2c3ccccc3Sc3ccc(Cl)cc32)CC1
3. NC[C@H]1O[C@H](O[C@H]2[C@H](O)[C@@H](O[C@H]3O[C@H](CO)[C@@H](O)[C@H](N)[C@H]3O)[C@H](N)C[C@@H]2N)[C@H](O)[C@@H](O)[C@@H]1O

Resp:
1. 113%
2. 94.8%
3. 88.1%
